These measurements were taken from the supplement of paper PMC6757056.

normalized RNA/DNA level without ligand (log10): recorded values
B1: library; a variant is named by its letters at N, in order (parent)
chain: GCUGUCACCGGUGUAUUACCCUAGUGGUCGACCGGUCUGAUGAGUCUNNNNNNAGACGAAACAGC

Variants of: B1
EXPERIMENT: normalized RNA/DNA level without ligand (relative to sTRSVctl = 100) (log10 (% of sTRSVctl)); ligand: hypoxanthine (xanthine aptamer); higher = less ribozyme self-cleavage, higher mRNA level
CONDITION NOTES: HEK293T, reporter: mCherry (pCS4076), ligand present: no
// return a plain number; no unit text

# MUTANT CODE, OBSERVED VALUE
rows = [
    ("GUUCGU", 1.89),
    ("GUAGUG", 1.43),
    ("GUCCCU", 1.92),
]

Which measured normalized RNA/DNA level without ligand (log10) value corresponds to CCUUUC ?
1.98

GGUACG , same question.
1.49

Another: UGUCAA
1.79

Another: ACUCUG
1.52

Then this variant: AAGCUU
1.86

// same read-out, input: AAUCGU
1.69

Could you do the same for GGGCAU , please?
1.83

Same question for GAGGCG please.
1.68

Please do the same for UGUAGA as well.
1.55
